These measurements were taken from patent US20250296960A1.

# ASSAYED SYSTEM: human glucagon receptor (GCGR), expressed on CHO-K1 cells (human, UniProt P47871 26-477)
# Sequence (P47871 26-477): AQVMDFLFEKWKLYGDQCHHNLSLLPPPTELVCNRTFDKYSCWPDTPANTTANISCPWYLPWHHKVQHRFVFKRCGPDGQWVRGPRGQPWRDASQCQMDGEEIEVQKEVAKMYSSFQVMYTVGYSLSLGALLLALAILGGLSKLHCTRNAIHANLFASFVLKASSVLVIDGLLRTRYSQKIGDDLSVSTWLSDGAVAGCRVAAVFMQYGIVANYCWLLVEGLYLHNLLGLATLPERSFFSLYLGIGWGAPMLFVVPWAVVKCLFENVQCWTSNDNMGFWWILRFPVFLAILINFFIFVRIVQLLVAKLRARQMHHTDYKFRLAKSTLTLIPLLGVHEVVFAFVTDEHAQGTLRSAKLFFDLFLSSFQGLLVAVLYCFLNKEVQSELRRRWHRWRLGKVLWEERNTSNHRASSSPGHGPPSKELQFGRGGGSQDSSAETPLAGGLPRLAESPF
# TEST PROTOCOL: cell-based or functional assay
Numbered stars: 1 amine (or outer) side, 2 acyl side, 3 side chain; on linkers, the order of the positions; unused ones are H or OH. Square brackets hold non-standard residues; d marks the D form. Side chains are listed from the residue outwards. Ends that are not written are not given here. * marks the point of attachment. C18 = C18 fatty acid (C16-C22 fatty acids conjugated via γGlu/8-amino-3,6-dioxaoctanoic acid spacers); Biotin = O=C1N[C@H]2[C@H](CS[C@H]2CCCCC(=O)*)N1; γGlu = O=C(O)[C@H](CCC(=O)[*:2])N[*:1]; AEEA = NCCOCCOCC(=O)O; Aib = CC(C)(N)C(=O)O
READOUT LABEL: Ratio vs. GLP-1R

• Y[Aib]QGTFTSDYSK([AEEA-AEEA-γGlu-C18])LLDYMMQRDFVQWLLEGGPSSGAPPPSK(Biotin)-NH2 [SEQ ID NO. 90] = 39
• Y[Aib]QGTFTSDYSK([AEEA-AEEA-γGlu-C18])LLDYMMQKDFVQWLLEGGPSSGAPPPS-NH2 (not fully specified (residue 20); printed as YAibQGT FTSDY SK*LLD YMMQB* DFVQW LLEGG PSSGA PPPS) [SEQ ID NO. 88] = 120
• Y[Aib]QGTFTSDYSK([AEEA-AEEA-γGlu-C18])LLDQQAQRDFVQWLLEGGPSSGAPPPS-NH2 [SEQ ID NO. 95] = 1
• Y[Aib]QGTFTSDYSK([AEEA-AEEA-γGlu-C18])YLDYMMQRDFVK(Biotin)WLLEGGPSSGAPPPS (ends and bridges not checked) [SEQ ID NO. 97] = 28
• Y[Aib]QGTFTSDYSK([AEEA-AEEA-γGlu-C18])LLDYMMQ[Aib]DFVQYLLEGGPSSGAPPPS-NH2 [SEQ ID NO. 85] = 305
• Y[Aib]QGTFTSDYSK([AEEA-AEEA-γGlu-C18])LLDKMMQRDFVQWLLEGGPSSGAPPPS-NH2 (not fully specified (residue 16); printed as YAibQGT FTSDY SK*LLD B*MMQR DFVQW LLEGG PSSGA PPPS) [SEQ ID NO. 86] = 157
